- System tested: human Aurora A (amino acids 123–401) (Homo sapiens)
- Construct: N-terminal truncated human Aurora A (amino acids 123–401); GST; made in house; host or cells: Sf9 insect cells
- Test description: In vitro inhibition of Aurora A kinase activity (Kinase-Glo Plus Luminescent Kinase assay, ATP consumption)
- Type: biochemical
- Conditions: mean of 2–3 independent determinations ± SD; >100 = inhibition < 50% at 100 nM
Property name: IC50

Given smiles | Property name | Data value
CCN1CCN(c2cc(Nc3cc(C)[nH]n3)nc(N[C@H]3CCN(C(=O)c4cc(F)c(Cl)cc4F)C3)n2)CC1 | IC50 | 50.9 nM
CCN1CCN(c2cc(Nc3cc(C)[nH]n3)nc(N[C@H]3CCN(S(=O)(=O)c4ccc(Cl)cc4F)C3)n2)CC1 | IC50 | > 100 nM
CCN1CCN(c2cc(Nc3cc(C)[nH]n3)nc(N[C@H]3CCN(C(=O)c4ccccc4)C3)n2)CC1 | IC50 | 29 nM

Entry `Cc1cc(Nc2cc(N3CC[C@H](N(C)C)C3)nc(N[C@H]3CCN(C(=O)c4cccc(Cl)c4F)C3)n2)n[nH]1` , IC50 reported as 29.8 nM

---

- System tested: human Aurora A (amino acids 123–401) (Homo sapiens, UniProt O14965)
- Construct: N-terminal truncated human Aurora A (amino acids 123–401); GST
- Sequence (O14965 123-401): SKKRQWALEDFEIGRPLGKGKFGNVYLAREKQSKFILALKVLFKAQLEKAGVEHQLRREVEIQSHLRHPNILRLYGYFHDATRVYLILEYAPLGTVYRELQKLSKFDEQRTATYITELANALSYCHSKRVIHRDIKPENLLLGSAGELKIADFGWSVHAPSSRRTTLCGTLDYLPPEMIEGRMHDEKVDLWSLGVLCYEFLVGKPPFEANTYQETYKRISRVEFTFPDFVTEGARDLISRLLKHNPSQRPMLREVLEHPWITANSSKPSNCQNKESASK
- Test description: In vitro inhibition of Aurora A kinase activity (Kinase-Glo Plus Luminescent Kinase assay, ATP consumption)
- Conditions: mean of 2–3 independent determinations ± SD; >100 = inhibition < 50% at 100 nM
Listed compounds paired with reported pIC50
On this scale, pIC50 is minus log10 of a concentration expressed in M (mol/L).

# example entries with known answers
Compound | Data value
CCN1CCN(c2cc(Nc3cc(C)[nH]n3)nc(N[C@H]3CCN(C(=O)c4ccc(Cl)c(F)c4F)C3)n2)CC1 [Compound 17] | 7.19
CCN1CCN(c2cc(Nc3cc(C)[nH]n3)nc(N[C@H]3CCN(C(=O)c4ccc(Cl)c(C)c4)C3)n2)CC1 [Compound 11] | 7.24

Now for another entry.
Entry CCN1CCN(c2cc(Nc3cc(C)[nH]n3)nc(N[C@H]3CCN(C(=O)c4cc(Cl)ccc4F)C3)n2)CC1 [Compound 12] , pIC50 reported as 7.34

---

- System tested: human Aurora A (amino acids 123–401) (Homo sapiens, UniProt O14965)
- Construct: N-terminal truncated human Aurora A (amino acids 123–401); GST
- Test description: In vitro inhibition of Aurora A kinase activity (Kinase-Glo Plus Luminescent Kinase assay, ATP consumption)
- Conditions: mean of 2–3 independent determinations ± SD; >100 = inhibition < 50% at 100 nM
Listed compounds paired with reported pIC50
On this scale, pIC50 is minus log10 of a concentration expressed in M (mol/L).

Entry `Cc1cc(Nc2cc(N(C)CCN(C)C)nc(N[C@H]3CCN(C(=O)c4cccc(Cl)c4F)C3)n2)n[nH]1` , pIC50 reported as 7.39

Entry `CCN1CCN(c2cc(Nc3cc(C)[nH]n3)nc(N[C@H]3CCN(C(=O)c4ccc(Cl)cc4F)C3)n2)CC1` , pIC50 reported as 7.41

Entry `CCN1CCN(c2cc(Nc3cc(C)[nH]n3)nc(N[C@H]3CCN(C(=O)c4ccc(Cl)cc4Cl)C3)n2)CC1` , pIC50 reported as 7.32

Entry `CCN1CCN(c2cc(Nc3cc(C)[nH]n3)nc(N[C@H]3CCN(C(=O)c4cccc(Cl)c4F)C3)n2)CC1` , pIC50 reported as 7.62

Entry `CCN1CCN(c2cc(Nc3cc(C)[nH]n3)nc(N[C@H]3CCN(C(=O)c4ccc(Cl)c(F)c4)C3)n2)CC1` , pIC50 reported as 7.28
